For each record, write down the corresponding pEC50.
- measuredTarget: human HSP90α (Homo sapiens, UniProt P07900)
- assayMethodText: biochemical
API: returns pEC50 as number; meaning -log10 of concentration in mol/L.

Entry CC1C=CCC(C)OC(=O)c2c(O)cc(O)cc2CC(=NOCC(=O)N2CCCCC2)C=CC1 (stereo not drawn) : reported pEC50 = ?
7.49

Entry CCCC1CC=CCCC(C)=CC(=NOCC(=O)N(CC)CC)Cc2cc(O)cc(O)c2C(=O)O1 (stereo not drawn) : reported pEC50 = ?
5.33

Entry CC1CC=CC(O)CC=CC(=NOCC(=O)N2CCCCC2)Cc2cc(O)cc(O)c2C(=O)O1 (stereo not drawn) : reported pEC50 = ?
7.70

Entry CCCN(CCC)C(=O)CON=C1C=CCCC=CCCOC(=O)c2c(O)cc(O)cc2C1 : reported pEC50 = ?
6.94

Entry CC1CCN(C(=O)CON=C2C=CCCC=CCCOC(=O)c3c(O)cc(O)cc3C2)CC1 : reported pEC50 = ?
7.15

Entry O=C1OCCC=CCCC=CC(=NOCC(=O)N2CCNCC2)Cc2cc(O)cc(O)c21 : reported pEC50 = ?
6.19

Entry CC1C=CCCCOC(=O)c2c(O)cc(O)c(Cl)c2CC(=NOCC(=O)N2CCCCC2)C=CC1 (stereo not drawn) : reported pEC50 = ?
5.76

Entry O=C1OCCC=CCCC=CC(=NOCC(=O)N2CCCC2)Cc2cc(O)cc(O)c21 : reported pEC50 = ?
6.66

Entry CCCC1CC=CC(C)CC=CC(=NOCC(=O)N2CCCCC2)Cc2cc(O)cc(O)c2C(=O)O1 (stereo not drawn) : reported pEC50 = ?
6.09

Entry CCCC1CC=CCCC=CC(=NOCC(=O)N2CCCCC2)Cc2cc(O)cc(O)c2C(=O)O1 (stereo not drawn) : reported pEC50 = ?
6.23

Entry O=C1OCCC=CCCC=CC(=NOCC(=O)N(Cc2ccccc2)Cc2ccccc2)Cc2cc(O)cc(O)c21 : reported pEC50 = ?
5.52

Entry O=C1OCCC=CCCC=CC(=NOCC(=O)N2CCOCC2)Cc2cc(O)cc(O)c21 : reported pEC50 = ?
6.91

Entry CCN(CC)C(=O)CON=C1C=C(C)CCC=CCC(C)OC(=O)c2c(O)cc(O)cc2C1 (stereo not drawn) : reported pEC50 = ?
6.70

Entry O=C1OCCC=CCCC=CC(=NOCC(=O)N2CCC(Cc3ccccc3)CC2)Cc2cc(O)cc(O)c21 : reported pEC50 = ?
5.24

Entry [N-]=[N+]=NCC1CC=CCCC=CC(=NOCC(=O)N2CCCCC2)Cc2c(Cl)c(O)cc(O)c2C(=O)O1 (stereo not drawn) : reported pEC50 = ?
7.10

====

- measuredTarget: human HSP90α (Homo sapiens)
- assayMethodText: biochemical
For each record, write down the corresponding pEC50.
API: returns pEC50 as number; meaning -log10 of concentration in mol/L.

Entry CC1C=CCCOC(=O)c2c(O)cc(O)c(Cl)c2CC(=NOCC(=O)N2CCCCC2)C=CC1 (stereo not shown) [Compound A2B4C4D1] : reported pEC50 = ?
6.77

Entry C=CC1=CCCC=CC(=NOCC(=O)N2CCCCC2)Cc2c(Cl)c(O)cc(O)c2C(=O)OCC1 [Compound A2B1C8D1] : reported pEC50 = ?
6.36

Entry CC1C=CCC(C)OC(=O)c2c(O)cc(O)c(Cl)c2CC(=NOCC(=O)N2CCCCC2)C=CC1 (stereo not shown) [Compound A2B4C1D1] : reported pEC50 = ?
6.81

Entry CC1C=CCCOC(=O)c2c(O)cc(O)cc2CC(=NOCC(=O)N2CCCCC2)C=CC1 (stereo not shown) [Compound A1B4C4D1] : reported pEC50 = ?
7.68

Entry CCN(CC)C(=O)CON=C1C=CCCC=CCC(C)OC(=O)c2c(O)cc(O)cc2C1 (stereo not shown) [Compound A1B1C1D18] : reported pEC50 = ?
6.27

Entry O=C1OCCC=CC(O)CC=CC(=NOCC(=O)N2CCCCC2)Cc2c(Cl)c(O)cc(O)c21 (stereo not shown) [Compound A2B5C4D1] : reported pEC50 = ?
7.74

Entry CC1CC=CCCC=CC(=NOCC(=O)N2CCCCC2)Cc2cc(O)cc(O)c2C(=O)O1 (stereo not shown) [Compound A1B1C1D1] : reported pEC50 = ?
7.47

Entry CC1C=CC(C)N1C(=O)CON=C1C=CCCC=CCCOC(=O)c2c(O)cc(O)cc2C1 (stereo not shown) [Compound A1B1C4D16] : reported pEC50 = ?
6.92

Entry CC1CCCCN1C(=O)CON=C1C=CCCC=CCCOC(=O)c2c(O)cc(O)cc2C1 (stereo not shown) [Compound A1B1C4D2] : reported pEC50 = ?
6.05

Entry O=C1OCCC=CCCC=CC(=NOCC(=O)N2CCCCCC2)Cc2cc(O)cc(O)c21 [Compound A1B1C4D23] : reported pEC50 = ?
6.85

====

For each record, write down the corresponding EC50.
- Tested on: Her-2 in SkBr3 cells
- assayMethodText: Her-2 depletion in SkBr3 cells (pharmacodynamic marker of cellular efficacy)
- Format: cell-based
- measurementSetup: Homo sapiens, SK-BR-3; SkBr3 cells treated with the inhibitor overnight; read-out: PD (μM), pharmacodynamic EC50, Her-2 depletion

Entry O=C1OCCC=CCCC=CC(=NOCC(=O)N2CCC(Cc3ccccc3)CC2)Cc2cc(O)cc(O)c21 : reported EC50 = ?
> 10 µM

Entry CC1=CC(=NOCC(=O)N2CCCCC2)Cc2cc(O)cc(O)c2C(=O)OCCC=CCC1 : reported EC50 = ?
≤ 0.5 µM

Entry O=C1NCCC=CCCC=CC(=NOCC(=O)N2CCCCC2)Cc2c(Cl)c(O)cc(O)c21 : reported EC50 = ?
≤ 1 µM

Entry CC1CCCC(C)N1C(=O)CON=C1C=CCCC=CCCOC(=O)c2c(O)cc(O)cc2C1 (stereo not drawn) : reported EC50 = ?
< 5 µM

Entry CCCC1CC=CCCC=CC(=NOCC(=O)N2CCCCC2)Cc2cc(O)cc(O)c2C(=O)O1 (stereo not drawn) : reported EC50 = ?
> 10 µM

Entry CC(C)CN(CC(C)C)C(=O)CON=C1C=CCCC=CCCOC(=O)c2c(O)cc(O)cc2C1 : reported EC50 = ?
≤ 5 µM

Entry CC1C=CC(C)N1C(=O)CON=C1C=CCCC=CCCOC(=O)c2c(O)cc(O)cc2C1 (stereo not drawn) : reported EC50 = ?
≤ 1 µM

Entry O=C1OCCC=CCCC=CC(=NOCC(=O)N2CCC(c3ccccc3)CC2)Cc2cc(O)cc(O)c21 : reported EC50 = ?
> 10 µM

Entry CC1C=CCCOC(=O)c2c(O)cc(O)c(Cl)c2CC(=NOCC(=O)N2CCCCC2)C=CC1 (stereo not drawn) : reported EC50 = ?
≤ 5 µM

Entry CCCC1CC=CC(C)CC=CC(=NOCC(=O)N2CCCCC2)Cc2c(Cl)c(O)cc(O)c2C(=O)O1 (stereo not drawn) : reported EC50 = ?
≤ 10 µM

Entry O=C1OCCC=CCCC=CC(=NOCC(=O)N2CC=CC2)Cc2cc(O)cc(O)c21 : reported EC50 = ?
≤ 1 µM

Entry CC(C)N(C(=O)CON=C1C=CCCC=CCCOC(=O)c2c(O)cc(O)cc2C1)C(C)C : reported EC50 = ?
≤ 1 µM

Entry O=C1OCCC=CCCC=CC(=NOCC(=O)N2CCNCC2)Cc2cc(O)cc(O)c21 : reported EC50 = ?
≤ 5 µM

Entry O=C(CON=C1C=CCCC=CCCOC(=O)c2c(O)cc(O)cc2C1)NC1CCCCC1 : reported EC50 = ?
≤ 5 µM

Entry CC1C=CCC(C)OC(=O)c2c(O)cc(O)c(Cl)c2CC(=NOCC(=O)N2CCCCC2)C=CC1 (stereo not drawn) : reported EC50 = ?
≤ 1 µM

====

- measuredTarget: human HSP90α (Homo sapiens)
- Construct: purchased Stressgen SPP-776F
- assayMethodText: biochemical
- Assay type: binding
For each record, write down the corresponding log10 of EC50.
Hello, just confirming the data are log10 of EC50 with units of nM.

Provide the documented log10 of EC50 with human HSP90α (Homo sapiens) as the system for O=C1OCCC=CCCC=CC(=NOCC(=O)N2CCC(c3ccccc3)CC2)Cc2cc(O)cc(O)c21 [Compound A1B1C4D7]
3.35

Provide the documented log10 of EC50 with human HSP90α (Homo sapiens) as the system for CC1CCCC(C)N1C(=O)CON=C1C=CCCC=CCCOC(=O)c2c(O)cc(O)cc2C1 (centres unmarked) [Compound A1B1C4D6]
2.38

Provide the documented log10 of EC50 with human HSP90α (Homo sapiens) as the system for COC(=O)CON=C1C=CCCC=CCCOC(=O)c2c(O)cc(O)cc2C1 [Compound A1B1C4D26]
2.57

Provide the documented log10 of EC50 with human HSP90α (Homo sapiens) as the system for CCN(CC)C(=O)CON=C1C=CCCC=CCCOC(=O)c2c(O)cc(O)cc2C1 [Compound A1B1C4D18]
2.29

Provide the documented log10 of EC50 with human HSP90α (Homo sapiens) as the system for CCCC1CC=CC(C)CC=CC(=NOCC(=O)N2CCCCC2)Cc2c(Cl)c(O)cc(O)c2C(=O)O1 (centres unmarked) [Compound A2B4C2D1]
3.24

Provide the documented log10 of EC50 with human HSP90α (Homo sapiens) as the system for O=C1OCCC=CCCC=CC(=NOCC(=O)N2CC=CC2)Cc2cc(O)cc(O)c21 [Compound A1B1C4D15]
2.11

Provide the documented log10 of EC50 with human HSP90α (Homo sapiens) as the system for O=C1OCCC=CCCC=CC(=NOCC(=O)N2CCSCC2)Cc2cc(O)cc(O)c21 [Compound A1B1C4D11]
1.85
